Details: in ethanol, 293.15 K
MEASURED METRIC: solubility (mole fraction)
No unit in the answer, only the number.

Value of solubility (mole fraction) reported for the compound "Cc1cnc(NC(=O)C2=C(O)c3ccccc3S(=O)(=O)N2C)s1" is 4.47e-05

====

Settings: in ethanol, 313.15 K
MEASURED METRIC: solubility (mole fraction)
API note: the answer field is a bare number with no unit suffix.

solubility (mole fraction) recorded for this molecule, "Cc1cnc(NC(=O)C2=C(O)c3ccccc3S(=O)(=O)N2C)s1" , is 0.000123

====

Settings: in ethyl acetate, 303.15 K
MEASURED METRIC: solubility (mole fraction)
# print the numeric value only

solubility (mole fraction) in this record for "Cc1cnc(NC(=O)C2=C(O)c3ccccc3S(=O)(=O)N2C)s1" : 0.00053

====

Details: in ethyl acetate, 293.15 K
MEASURED METRIC: solubility (mole fraction)

// solubility (mole fraction) lookup, molecule = "Cc1cnc(NC(=O)C2=C(O)c3ccccc3S(=O)(=O)N2C)s1" , result: 0.000389
